So I've got a bunch of variants here, and I need their protein stability index values.
B1: NP_006221.1 (parent)
chain: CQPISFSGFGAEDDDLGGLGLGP

- Variants of: B1
- assay remarks: protein stability index of a GFP-peptide fusion (GPS, HEK-293T) (PSI 1-6); higher = more stable;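 further: lentivirally expressed fusion library, cells FACS-sorted into six equal-sized GFP/DsRed ratio bins, PSI computed from sequencing read fractions per bin weighted by bin number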
- assay conditions: c terminus: native
One number for each entry.

Illustrative cases are given below, each with its answer.
mutation_key=P3A recorded_result=2.19
mutation_key=A11Y recorded_result=2.06

Could you tell me protein stability index for each of these variants? They are listed below.
1. E12V
2. D15T

a:
[2.3, 2.52]
